System: Citrobacter werkmanii
assay-method-text: Antimicrobial activity against Citrobacter werkmanii PS012 expressing PMQR determinant qnrB22 gene by Etest
Assay type: functional
Recorded MIC by entry

Memo: CCn1cc(C(=O)O)c(=O)c2cc(F)c(N3CCNCC3)cc21 , reported MIC: 0.5 mg/L

Memo: C[C@H]1COc2c(N3CCN(C)CC3)c(F)cc3c(=O)c(C(=O)O)cn1c23.C[C@H]1COc2c(N3CCN(C)CC3)c(F)cc3c(=O)c(C(=O)O)cn1c23.O , reported MIC: 0.5 mg/L

Memo: CC1COc2c(N3CCN(C)CC3)c(F)cc3c(=O)c(C(=O)O)cn1c23 (stereo not given) , reported MIC: 1 mg/L

Memo: O=C(O)c1cn(C2CC2)c2cc(N3CCNCC3)c(F)cc2c1=O , reported MIC: 0.25 mg/L

As a next step, examine the molecule that follows.
Memo: CCn1cc(C(=O)O)c(=O)c2ccc(C)nc21 , reported MIC: 32 mg/L
